biological target: CD63 on cells (human) (UniProt P08962); assay: cell-based or functional assay
Sequence (P08962 2-238): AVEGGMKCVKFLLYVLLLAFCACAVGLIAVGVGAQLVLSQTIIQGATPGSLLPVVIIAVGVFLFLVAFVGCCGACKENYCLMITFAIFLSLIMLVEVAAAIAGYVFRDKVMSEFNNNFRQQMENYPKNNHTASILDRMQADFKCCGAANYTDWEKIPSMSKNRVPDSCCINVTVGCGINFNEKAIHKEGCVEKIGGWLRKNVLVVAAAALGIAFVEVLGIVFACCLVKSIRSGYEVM
measure.name: IC50 of cytotoxicity, SK-OV-3 cells (CellTiter-GLO, 4 days) (µg/mL)
Give bare numbers, in µg/mL.

Examples from the recorded data:
>  <binder>
bsHER2xCD63-Duo3 with CD63 variant Y121H (bispecific antibody, part only; not given: HER2 arm, V domains shown, part only) VH: EVQLQQSGPELVKPGASVKMSCKASGYTFTSYVMHWVRQTPGQGLEWIGYITPYNDGTKYNEKFKGKATLTSDKSSSTAYMELSSLTSEDSAVYYCVGGDNHYYAMDYWGQGTSVTVSAA VL: NIMVTQSPSSLAVSAGEKVTMSCKSSQSVLYSSNQKNYLAWYQQKPGQSPKLLIYWASTRVSGVPDRFTGSGSGTDFTLTISRVQAEDLAVYYCHQYFSSFTFGSGTKLEIKRT

>  <unit.symbol>
µg/mL

>  <endpoint.value>
0.259

$$$$
>  <binder>
bsHER2xCD63-Duo3 with CD63 variant LN54H (bispecific antibody, part only; not given: HER2 arm (IgG1-153) VH and VL, V domains shown, part only) VH: EVQLQQSGPELVKPGASVKMSCKASGYTFTSYVMHWVRQTPGQGLEWIGYITPYNDGTKYNEKFKGKATLTSDKSSSTAYMELSSLTSEDSAVYYCVGGDNYYYAMDYWGQGTSVTVSAA VL: NIMVTQSPSSLAVSAGEKVTMSCKSSQSVLYSSHQKNYLAWYQQKPGQSPKLLIYWASTRVSGVPDRFTGSGSGTDFTLTISRVQAEDLAVYYCHQYFSSFTFGSGTKLEIKRT

>  <unit.symbol>
µg/mL

>  <endpoint.value>
0.021

$$$$
>  <binder>
bsHER2xCD63-Duo3 with CD63 variant LS52 (bispecific antibody, part only; not given: HER2 arm (IgG1-153) VH and VL, V domains shown, part only) VH: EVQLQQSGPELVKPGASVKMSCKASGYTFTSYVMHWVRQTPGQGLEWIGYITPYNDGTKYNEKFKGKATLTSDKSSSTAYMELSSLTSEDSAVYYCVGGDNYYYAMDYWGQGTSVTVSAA VL: NIMVTQSPSSLAVSAGEKVTMSCKSSQSVLYHSNQKNYLAWYQQKPGQSPKLLIYWASTRVSGVPDRFTGSGSGTDFTLTISRVQAEDLAVYYCHQYFSSFTFGSGTKLEIKRT

>  <unit.symbol>
µg/mL

>  <endpoint.value>
0.047

$$$$
>  <binder>
bsHER2xCD63-Duo3 with CD63 variant LV49H (bispecific antibody, part only; not given: HER2 arm (IgG1-153) VH and VL, V domains shown, part only) VH: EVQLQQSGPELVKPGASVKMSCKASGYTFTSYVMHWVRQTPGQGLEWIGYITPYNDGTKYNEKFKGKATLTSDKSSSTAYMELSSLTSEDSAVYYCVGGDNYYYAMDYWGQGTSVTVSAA VL: NIMVTQSPSSLAVSAGEKVTMSCKSSQSHLYSSNQKNYLAWYQQKPGQSPKLLIYWASTRVSGVPDRFTGSGSGTDFTLTISRVQAEDLAVYYCHQYFSSFTFGSGTKLEIKRT

>  <unit.symbol>
µg/mL

>  <endpoint.value>
0.314

$$$$
>  <binder>
bsHER2xCD63-Duo3 with CD63 variant T71H (bispecific antibody, part only; not given: HER2 arm (IgG1-153) VH and VL, V domains shown, part only) VH: EVQLQQSGPELVKPGASVKMSCKASGYTFTSYVMHWVRQTPGQGLEWIGYIHPYNDGTKYNEKFKGKATLTSDKSSSTAYMELSSLTSEDSAVYYCVGGDNYYYAMDYWGQGTSVTVSAA VL: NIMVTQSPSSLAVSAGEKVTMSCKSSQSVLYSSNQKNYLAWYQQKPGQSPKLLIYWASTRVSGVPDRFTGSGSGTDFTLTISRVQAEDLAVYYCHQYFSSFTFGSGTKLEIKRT

>  <unit.symbol>
µg/mL

>  <endpoint.value>
0.115

$$$$
>  <binder>
bsHER2xCD63-Duo3 (bispecific antibody, part only; not given: HER2 arm, IgG1, V domains shown, part only) VH: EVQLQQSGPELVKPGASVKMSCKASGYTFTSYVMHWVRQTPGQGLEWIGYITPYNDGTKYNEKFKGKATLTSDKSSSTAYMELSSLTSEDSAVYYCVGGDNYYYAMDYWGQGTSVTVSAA VL: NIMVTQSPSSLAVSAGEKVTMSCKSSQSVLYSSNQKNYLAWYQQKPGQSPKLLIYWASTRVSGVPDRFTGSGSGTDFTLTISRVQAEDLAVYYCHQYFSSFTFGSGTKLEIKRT

>  <unit.symbol>
µg/mL

>  <endpoint.value>
0.017

$$$$
>  <binder>
bsHER2xCD63-Duo3 with CD63 variant LY51H (bispecific antibody, part only; not given: HER2 arm (IgG1-153) VH and VL, V domains shown, part only) VH: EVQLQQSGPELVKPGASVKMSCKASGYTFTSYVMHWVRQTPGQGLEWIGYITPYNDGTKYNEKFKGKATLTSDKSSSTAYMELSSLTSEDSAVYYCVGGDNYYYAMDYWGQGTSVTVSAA VL: NIMVTQSPSSLAVSAGEKVTMSCKSSQSVLHSSNQKNYLAWYQQKPGQSPKLLIYWASTRVSGVPDRFTGSGSGTDFTLTISRVQAEDLAVYYCHQYFSSFTFGSGTKLEIKRT

>  <unit.symbol>
µg/mL

>  <endpoint.value>
0.207

$$$$
>  <binder>
bsCD63xb12-Duo3 with CD63 variant LQ47 (bispecific antibody, part only; not given: b12 control arm, V domains shown, part only) VH: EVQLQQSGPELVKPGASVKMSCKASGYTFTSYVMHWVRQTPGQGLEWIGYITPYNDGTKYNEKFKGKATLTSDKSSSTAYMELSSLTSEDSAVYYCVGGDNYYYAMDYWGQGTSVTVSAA VL: NIMVTQSPSSLAVSAGEKVTMSCKSSHSVLYSSNQKNYLAWYQQKPGQSPKLLIYWASTRVSGVPDRFTGSGSGTDFTLTISRVQAEDLAVYYCHQYFSSFTFGSGTKLEIKRT

>  <unit.symbol>
µg/mL

>  <endpoint.value>
1.11

$$$$

# map each binder to its IC50 of cytotoxicity, SK-OV-3 cells (CellTiter-GLO, 4 days)
1. bsHER2xCD63-Duo3 with CD63 variant G76H (bispecific antibody, part only; not given: HER2 arm (IgG1-153) VH and VL, V domains shown, part only) VH: EVQLQQSGPELVKPGASVKMSCKASGYTFTSYVMHWVRQTPGQGLEWIGYITPYNDHTKYNEKFKGKATLTSDKSSSTAYMELSSLTSEDSAVYYCVGGDNYYYAMDYWGQGTSVTVSAA VL: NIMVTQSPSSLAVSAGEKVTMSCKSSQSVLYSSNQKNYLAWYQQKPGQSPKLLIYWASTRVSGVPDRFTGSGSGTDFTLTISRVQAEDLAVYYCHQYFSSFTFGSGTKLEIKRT
2. bsCD63xb12-Duo3 with CD63 variant LN54H (bispecific antibody, part only; not given: b12 control arm VH and VL, V domains shown, part only) VH: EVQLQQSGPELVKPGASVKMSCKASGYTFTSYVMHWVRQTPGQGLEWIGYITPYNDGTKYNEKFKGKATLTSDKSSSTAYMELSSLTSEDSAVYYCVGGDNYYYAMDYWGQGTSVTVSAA VL: NIMVTQSPSSLAVSAGEKVTMSCKSSQSVLYSSHQKNYLAWYQQKPGQSPKLLIYWASTRVSGVPDRFTGSGSGTDFTLTISRVQAEDLAVYYCHQYFSSFTFGSGTKLEIKRT

[0.351, 3.35]
